# IC50 listing for each entry below
Tested on: P388
Assay: In vitro cytotoxicity against P388-mouse leukemia cells.
Format: functional, cell-based
State the answer as a number, implicitly in µg/mL.

Example entries begin here.
| recordSmiles | IC50 / µg/mL |
| --- | --- |
| CC(=O)O[C@@H]1C2=C(C)[C@@H](OC(=O)[C@H](O)[C@@H](NC(=O)OC(C)C)c3ccccc3)C[C@@](O)([C@@H](OC(=O)c3ccccc3)[C@@H]3[C@]4(OC(C)=O)CO[C@@H]4C[C@H](O)[C@@]3(C)[C@H]1O)C2(C)C | 0.0092 |
| CCOC(=O)N[C@@H](c1ccccc1)[C@@H](O)C(=O)O[C@H]1C[C@@]2(O)[C@@H](OC(=O)c3ccccc3)[C@@H]3[C@]4(OC(C)=O)CO[C@@H]4C[C@H](O)[C@@]3(C)[C@@H](O)[C@H](OC(C)=O)C(=C1C)C2(C)C | 0.043 |
| CC(=O)O[C@@H]1C2=C(C)[C@@H](OC(=O)[C@H](O)[C@@H](NC(=O)c3ccc(C)cc3)c3ccccc3)C[C@@](O)([C@@H](OC(=O)c3ccccc3)[C@@H]3[C@]4(OC(C)=O)CO[C@@H]4C[C@H](O)[C@@]3(C)[C@H]1O)C2(C)C | 0.063 |

Shift focus to the following entry.
Give the observed IC50 of CCC(C)(C)OC(=O)N[C@@H](c1ccccc1)[C@@H](O)C(=O)O[C@H]1C[C@@]2(O)[C@@H](OC(=O)c3ccccc3)[C@@H]3[C@]4(OC(C)=O)CO[C@@H]4C[C@H](O)[C@@]3(C)[C@@H](O)[C@H](OC(C)=O)C(=C1C)C2(C)C for P388. 0.0046
